Every entry's value here was drawn from patent US20260132547A1.

- target: SARS-CoV-2 Spike RBD (SARS-CoV-2), P0DTC2
- run-description: ELISA: plate coated with 100 nM SARS-CoV-2 Spike RBD, biotinylated bicyclic peptide titrated, streptavidin-HRP/TMB, A450; curve fitting
test-readout: Kd (nM)

(I) AIDSCRYNHGWQC (modifications not checked) [bicyclized NP8 (…)]
(II) AISECNHIAEWMC (modifications not checked) [bicyclized NP10 (…)]
Could you check which of I and II has a smaller value for Kd? Mark your selection by writing its label.
II
(II: 400 nM, I: 3000 nM)
